test system: HeLa; assay: MALAT1 nuclear FISH intensity, robust Z-score vs DMSO; higher = more nuclear MALAT1 lncRNA, active = -3 or less; conditions: 10 µM; 6 h;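 further: High-content confocal imaging of branched-DNA amplified FISH in 384-well plates, Hoechst-defined nuclei, score is well value minus plate DMSO median over DMSO robust SD, four wells per compound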
Where a name gives a salt, the structure may show the parent alone.
Assign class by MALAT1 nuclear FISH intensity: not lower than 0.3 means yes; lower than 0.3 means no.

Completed entries (count: 5):
C[C@]12CCC(=O)C=C1[C@@H]1C[C@@H]1[C@H]1[C@@H]3[C@@H]4C[C@@H]4[C@@]4(CCC(=O)O4)[C@@]3(C)CC[C@@H]12: yes
C[C@@](Cc1ccc(O)c(O)c1)(NN)C(=O)O: no
Nc1ncn([C@H]2C[C@H](O)[C@@H](CO)O2)c(=O)n1: no
CN(C)CCOC(c1ccc(Cl)cc1)c1ccccn1 (centres undefined) [Carbinoxamine Maleate]: yes
CN1CC2c3ccccc3Oc3ccc(Cl)cc3C2C1 (centres undefined) [Asenapine Maleate]: no

# next molecule below
// query Determine whether this molecule has MALAT1 nuclear FISH intensity no lower than 0.3: O=c1[nH]c(=O)n([C@H]2C[C@H](O)[C@@H](CO)O2)cc1F
// result no
